# EXPERIMENT_SUMMARY: Liver microsomes stability, rat
# EXPERIMENTAL_SETUP: Without NADPH, 60 min
MEASURE: Remaining Percentage (%)
Numbers only, in %.

Completed entries (count: 3):
# input Param item = COc1cccc2c1C(C[C@H]1CCCN1C)CN2 (stereo partly drawn) [(R)-I-94] ; retrieve measured Remaining Percentage.
# output 96.34

# input Param item = COc1ccc2c(c1)C(C[C@H]1CCCN1C)CN2 (stereo partly drawn) [(R)-I-54] ; retrieve measured Remaining Percentage.
# output 97.75

# input Param item = COc1ccc2c(c1)C(C[C@H]1CCCN1)CN2 (stereo partly drawn) [(R)-I-165] ; retrieve measured Remaining Percentage.
# output 119.73

Others:
# input Param item = CN1CCC[C@@H]1C[C@H]1CNc2ccc(F)cc21 [(R),(R)-I-47] ; retrieve measured Remaining Percentage.
# output 100.00

###

# EXPERIMENT_SUMMARY: Liver microsomes stability, rat
MEASURE: Predicted hepatic CL (mL/min/kg)
Answers are plain numbers, in mL/min/kg.

# input Param item = COc1ccc2c(c1)C(C[C@H]1CCCN1)CN2 (stereo partly drawn) [(R)-I-165] ; retrieve measured Predicted hepatic CL.
# output 31.82

# input Param item = COc1ccc2c(c1)C(C[C@H]1CCCN1C)CN2 (stereo partly drawn) [(R)-I-54] ; retrieve measured Predicted hepatic CL.
# output 49.19

# input Param item = CN1CCC[C@@H]1C[C@H]1CNc2ccc(F)cc21 [(R),(R)-I-47] ; retrieve measured Predicted hepatic CL.
# output 45.31

Others:
# input Param item = COc1cccc2c1C(C[C@H]1CCCN1C)CN2 (stereo partly drawn) [(R)-I-94] ; retrieve measured Predicted hepatic CL.
# output 19.77

###

# EXPERIMENT_SUMMARY: Liver microsomes stability, mouse
# EXPERIMENTAL_SETUP: Without NADPH, 30 min
So I've got a bunch of compounds here, and I need their Remaining Percentage values.
Give bare numbers, in %.

Completed entries (count: 3):
# input Param item = COc1cccc2c1C(C[C@H]1CCCN1C)CN2 (stereo partly drawn) [(R)-I-94] ; retrieve measured Remaining Percentage.
# output 109.64

# input Param item = COc1ccc2c(c1)C(C[C@H]1CCCN1)CN2 (stereo partly drawn) [(R)-I-165] ; retrieve measured Remaining Percentage.
# output 100.70

# input Param item = CN1CCC[C@@H]1C[C@H]1CNc2ccc(F)cc21 [(R),(R)-I-47] ; retrieve measured Remaining Percentage.
# output 114.71

Here is another compound to look at.
# input Param item = COc1ccc2c(c1)C(C[C@H]1CCCN1C)CN2 (stereo partly drawn) [(R)-I-54] ; retrieve measured Remaining Percentage.
# output 98.80

###

# MEASURED_TARGET: human 5-HT2A (h5-HT2A) receptor (Homo sapiens)
# Construct: grown under G418 and hygromycin B selection
# Sequence (P28223 whole entry): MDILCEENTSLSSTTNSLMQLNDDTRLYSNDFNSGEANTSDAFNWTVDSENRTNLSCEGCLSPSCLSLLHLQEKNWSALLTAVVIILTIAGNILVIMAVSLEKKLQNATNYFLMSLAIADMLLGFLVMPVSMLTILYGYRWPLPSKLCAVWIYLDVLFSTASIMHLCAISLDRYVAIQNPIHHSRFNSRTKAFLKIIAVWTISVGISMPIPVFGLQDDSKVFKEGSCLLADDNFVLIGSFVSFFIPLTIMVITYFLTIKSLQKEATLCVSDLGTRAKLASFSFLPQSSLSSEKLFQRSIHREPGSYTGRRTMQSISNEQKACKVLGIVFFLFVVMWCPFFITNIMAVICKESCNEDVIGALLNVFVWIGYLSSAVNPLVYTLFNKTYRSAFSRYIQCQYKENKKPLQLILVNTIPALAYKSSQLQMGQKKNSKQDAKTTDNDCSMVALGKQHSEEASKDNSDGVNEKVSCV
# EXPERIMENT_SUMMARY: FLIPR assay, human 5-HT2A, agonist mode
MEASURE: EC50 (nM)
Numbers only, in nM.

Completed entries (count: 4):
# input Param item = COc1cccc2c1C(C[C@H]1CCCN1C)CN2 (stereo partly drawn) [(R)-I-94] ; retrieve measured EC50.
# output 9

# input Param item = COc1ccc2c(c1)C(C[C@H]1CCCN1)CN2 (stereo partly drawn) [(R)-I-165] ; retrieve measured EC50.
# output 57

# input Param item = [2H]C([2H])([2H])N1CCC[C@@H]1CC1CNc2cc(OC)c(OC)cc21 (stereo partly drawn) [(R)-I-82] ; retrieve measured EC50.
# output 1560

# input Param item = CN1CCC[C@@H]1C[C@@H]1CNc2ccc(F)cc21 [(S),(R)-I-47] ; retrieve measured EC50.
# output 76

Others:
# input Param item = CN1CCC[C@@H]1C[C@H]1CNc2ccc(F)cc21 [(R),(R)-I-47] ; retrieve measured EC50.
# output 91

###

# EXPERIMENT_SUMMARY: Liver microsomes stability, rat
# EXPERIMENTAL_SETUP: With NADPH, 60 min
MEASURE: Remaining Percentage (%)
One number for each entry, in %.

Completed entries (count: 2):
# input Param item = COc1ccc2c(c1)C(C[C@H]1CCCN1C)CN2 (stereo partly drawn) [(R)-I-54] ; retrieve measured Remaining Percentage.
# output 0.48

# input Param item = COc1ccc2c(c1)C(C[C@H]1CCCN1)CN2 (stereo partly drawn) [(R)-I-165] ; retrieve measured Remaining Percentage.
# output 28.43

Would you be so kind as to report Remaining Percentage for each listed record?
1. COc1cccc2c1C(C[C@H]1CCCN1C)CN2 (stereo partly drawn) [(R)-I-94]
2. CN1CCC[C@@H]1C[C@H]1CNc2ccc(F)cc21 [(R),(R)-I-47]

# output
1: 59.71; 2: 1.45

###

# EXPERIMENT_SUMMARY: Liver microsomes stability, human
# EXPERIMENTAL_SETUP: human, Without NADPH, 60 min
MEASURE: Remaining Percentage (%)
One number for each entry, in %.

# input Param item = COc1ccc2c(c1)C(C[C@H]1CCCN1C)CN2 (stereo partly drawn) [(R)-I-54] ; retrieve measured Remaining Percentage.
# output 93.51

Would you be so kind as to report Remaining Percentage for each listed record?
1. CN1CCC[C@@H]1C[C@H]1CNc2ccc(F)cc21 [(R),(R)-I-47]
2. COc1cccc2c1C(C[C@H]1CCCN1C)CN2 (stereo partly drawn) [(R)-I-94]
3. COc1ccc2c(c1)C(C[C@H]1CCCN1)CN2 (stereo partly drawn) [(R)-I-165]

# output
[95.13, 98.20, 85.51]

###

So I've got a bunch of compounds here, and I need their Remaining Percentage values.
# EXPERIMENT_SUMMARY: Liver microsomes stability, mouse
# EXPERIMENTAL_SETUP: With NADPH, 60 min
Give bare numbers, in %.

Completed entries (count: 3):
# input Param item = COc1cccc2c1C(C[C@H]1CCCN1C)CN2 (stereo partly drawn) [(R)-I-94] ; retrieve measured Remaining Percentage.
# output 0.29

# input Param item = COc1ccc2c(c1)C(C[C@H]1CCCN1)CN2 (stereo partly drawn) [(R)-I-165] ; retrieve measured Remaining Percentage.
# output 63.99

# input Param item = CN1CCC[C@@H]1C[C@H]1CNc2ccc(F)cc21 [(R),(R)-I-47] ; retrieve measured Remaining Percentage.
# output 89.90

Here is another compound to look at.
# input Param item = COc1ccc2c(c1)C(C[C@H]1CCCN1C)CN2 (stereo partly drawn) [(R)-I-54] ; retrieve measured Remaining Percentage.
# output 10.91

###

# EXPERIMENT_SUMMARY: Liver microsomes stability, human
# EXPERIMENTAL_SETUP: human, pooled human liver microsomes
MEASURE: microsomal CLint at 2 μM (µL/min/mg)
Answers are plain numbers, in µL/min/mg.

Completed entries (count: 2):
# input Param item = COc1cccc2c1C(C[C@H]1CCCN1C)CN2 (stereo partly drawn) [(R)-I-94] ; retrieve measured microsomal CLint at 2 μM.
# output 6.17

# input Param item = CN1CCC[C@@H]1C[C@H]1CNc2ccc(F)cc21 [(R),(R)-I-47] ; retrieve measured microsomal CLint at 2 μM.
# output 2.51

Here is another compound to look at.
# input Param item = COc1ccc2c(c1)C(C[C@H]1CCCN1C)CN2 (stereo partly drawn) [(R)-I-54] ; retrieve measured microsomal CLint at 2 μM.
# output 31.1

###

So I've got a bunch of molecules here, and I need their Remaining Percentage values.
# EXPERIMENT_SUMMARY: Liver microsomes stability, rat
# EXPERIMENTAL_SETUP: With NADPH, 30 min
Numbers only, in %.

Completed entries (count: 3):
# input Param item = CN1CCC[C@@H]1C[C@H]1CNc2ccc(F)cc21 [(R),(R)-I-47] ; retrieve measured Remaining Percentage.
# output 5.12

# input Param item = COc1ccc2c(c1)C(C[C@H]1CCCN1C)CN2 (stereo partly drawn) [(R)-I-54] ; retrieve measured Remaining Percentage.
# output 2.28

# input Param item = COc1ccc2c(c1)C(C[C@H]1CCCN1)CN2 (stereo partly drawn) [(R)-I-165] ; retrieve measured Remaining Percentage.
# output 53.50

Others:
# input Param item = COc1cccc2c1C(C[C@H]1CCCN1C)CN2 (stereo partly drawn) [(R)-I-94] ; retrieve measured Remaining Percentage.
# output 84.38

###

# EXPERIMENT_SUMMARY: Liver microsomes stability, human
# EXPERIMENTAL_SETUP: human, With NADPH, 60 min
So I've got a bunch of compounds here, and I need their Remaining Percentage values.
Numbers only, in %.

Completed entries (count: 2):
# input Param item = COc1ccc2c(c1)C(C[C@H]1CCCN1)CN2 (stereo partly drawn) [(R)-I-165] ; retrieve measured Remaining Percentage.
# output 114.92

# input Param item = COc1ccc2c(c1)C(C[C@H]1CCCN1C)CN2 (stereo partly drawn) [(R)-I-54] ; retrieve measured Remaining Percentage.
# output 39.38

Would you be so kind as to report Remaining Percentage for each listed record?
1. CN1CCC[C@@H]1C[C@H]1CNc2ccc(F)cc21 [(R),(R)-I-47]
2. COc1cccc2c1C(C[C@H]1CCCN1C)CN2 (stereo partly drawn) [(R)-I-94]

# output
[92.73, 83.11]
